// data source = ChEMBL document CHEMBL1124724

target: 3-oxo-5-alpha-steroid 4-dehydrogenase 2 (Homo sapiens, UniProt P31213); assay: In vitro inhibition against Steroid 5-alpha-reductase of benign hyperplastic human prostatic tissue expressed as apparent inhibition constant; conditions: read-out: Ki app
Sequence (P31213 whole entry): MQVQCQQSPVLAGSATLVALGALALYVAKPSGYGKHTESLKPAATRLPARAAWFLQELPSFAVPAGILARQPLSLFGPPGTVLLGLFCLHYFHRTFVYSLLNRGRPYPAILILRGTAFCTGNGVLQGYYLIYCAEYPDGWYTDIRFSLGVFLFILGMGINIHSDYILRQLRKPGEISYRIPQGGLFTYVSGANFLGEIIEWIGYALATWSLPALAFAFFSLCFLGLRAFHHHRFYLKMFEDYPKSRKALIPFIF
value.type: pKi
Quick note: pKi means taking -log10 of the concentration in moles per liter.

The compound listed as `CC(C)N(C(=O)[C@H]1CC[C@H]2[C@@H]3CCc4cc(C(=O)O)c(C(=O)O)cc4[C@H]3CC[C@]12C)C(C)C` has a reported pKi of 5.30

###

Documented pKi across a set of compounds
experiment: Inhibition of Steroid 5-alpha-reductase of benign hyperplastic human prostatic tissue; conditions: read-out: Ki app
Quick note: pKi means taking -log10 of the concentration in moles per liter.

The compound listed as `CC(C)N(C(=O)[C@H]1CC[C@H]2[C@@H]3CCc4c(ccc(C(=O)O)c4F)[C@H]3CC[C@]12C)C(C)C` has a reported pKi of 8.00

The compound listed as CC(C)N(C(=O)[C@H]1CCC2C3C=Cc4cc(C(=O)O)ccc4C3CC[C@@]21C)C(C)C (some centres not stated) has a reported pKi of 7.52

The compound listed as CC(C)(C)NC(=O)C1=CCC2C3CCc4cc(C(=O)O)ccc4C3CC[C@]12C (some centres not stated) has a reported pKi of 7.22

The compound listed as `CC(C)N(C(=O)[C@H]1CC[C@H]2[C@@H]3CCc4cc(C(=O)O)ccc4[C@H]3CC[C@]12C)C(C)C` has a reported pKi of 7.70

###

biological target: Steroid 5-alpha-reductase (Rattus norvegicus, UniProt P24008+P31214); assay: Inhibition of Steroid 5-alpha-reductase of rat ventral prostate tissue; format: tissue-based, Prostate gland
For each record, check the reported Ki app: if it is below 0.3 µM write MET, else write NOT MET.

Exam item: Given the entry `CC(C)N(C(=O)[C@H]1CC[C@H]2[C@@H]3CCc4cc(C(=O)O)c(Br)cc4[C@H]3CC[C@]12C)C(C)C` , would its reported Ki app be below 0.3 µM?
Marked response: MET

Exam item: Given the entry `Cc1c(C(=O)O)ccc2c1CC[C@@H]1[C@@H]2CC[C@]2(C)[C@@H](C(=O)N(C(C)C)C(C)C)CC[C@@H]12` , would its reported Ki app be below 0.3 µM?
Marked response: NOT MET

Exam item: Given the entry `Cc1cc2c(cc1C(=O)O)CC[C@@H]1[C@@H]2CC[C@]2(C)[C@@H](C(=O)N(C(C)C)C(C)C)CC[C@@H]12` , would its reported Ki app be below 0.3 µM?
Marked response: NOT MET

Exam item: Given the entry CC(C)(C)NC(=O)C1=CCC2C3CCc4cc(C(=O)O)ccc4C3CC[C@]12C (some centres undefined) , would its reported Ki app be below 0.3 µM?
Marked response: MET

###

experiment: Inhibition of Steroid 5-alpha-reductase of benign hyperplastic human prostatic tissue; conditions: read-out: Ki app
For each record, check the reported Ki: if it is below 60 nM write Fulfilled, else write Not fulfilled.

These solved cases illustrate the format of a correct answer.
compound: CC(C)N(C(=O)[C@H]1CC[C@H]2[C@@H]3CCc4c(ccc(C(=O)O)c4C#N)[C@H]3CC[C@]12C)C(C)C
category.label: Not fulfilled
//
compound: CC(C)N(C(=O)[C@H]1CC[C@H]2[C@@H]3CCc4cc(C(=O)O)c(Br)cc4[C@H]3CC[C@]12C)C(C)C
category.label: Not fulfilled
//
compound: CC(C)N(C(=O)[C@H]1CC[C@H]2[C@@H]3CCc4cc(C(=O)O)c(C#N)cc4[C@H]3CC[C@]12C)C(C)C
category.label: Not fulfilled
//
compound: CC(C)N(C(=O)[C@H]1CC[C@H]2[C@@H]3CCc4c(ccc(C(=O)O)c4Cl)[C@H]3CC[C@]12C)C(C)C
category.label: Not fulfilled
//
compound: CC(C)N(C(=O)[C@H]1CC[C@H]2[C@@H]3CCc4cc(C(=O)O)c(Cl)cc4[C@H]3CC[C@]12C)C(C)C
category.label: Fulfilled

Exam item: Given the entry `CC(C)(C)NC(=O)[C@H]1CC[C@H]2[C@@H]3CCc4cc(C(=O)O)ccc4[C@H]3CC[C@]12C` , would its reported Ki be below 60 nM?
Marked response: Fulfilled

Exam item: Given the entry CC(C)N(C(=O)[C@H]1CCC2c3ccc4cc(C(=O)O)ccc4c3CC[C@@]21C)C(C)C (some centres not stated) , would its reported Ki be below 60 nM?
Marked response: Fulfilled
